target: Nuclear receptor subfamily 1 group I member 2 (Homo sapiens); experiment: Human pregnane X receptor (PXR) small molecule agonists, qHTS assay (AID 1346982); details: PXR-Luc HepG2, CYP3A4 luciferase reporter, 24 h; series mostly up to 92.4 µM; also: nearly all actives have a fitted effect of over 35% in size
Inconclusive results are not listed. Calls of active or inactive are those of the source. Calls follow the shape of the dose curve; as a rule, active = well fitted activation curve with a large enough effect in the repeat runs; inconclusive = weak or mixed curves; inactive = no such curve, though single readings can be large or run the other way.
One label from this list, please: active, inactive

Worked set:
Prompt: Assay result, entry Cc1ccc(Nc2ccc(O)c3c2C(=O)c2ccccc2C3=O)cc1 — outcome?
Response: inactive

Prompt: What do you get for COC(=O)CCCC(=O)O ?
Response: inactive

Prompt: Would you kindly repeat that for CCCC=O ?
Response: inactive

Next:
Prompt: Any idea what this test logged for COc1ccc2cc(C=O)ccc2c1 ?
Response: inactive

* * *

test: A CellTox Green Cytotoxicity Assay to monitor cytotoxicity in HepG2 cells - 32 hour (AID 1224883); details: CellTox Green fluorescence; series mostly up to 76.8 µM; also: nearly all actives have a fitted effect of over 50% in size
Inconclusive results are not listed. The source made the active and inactive calls. Calls come from the whole dose curve; as a rule, active = well fitted activation curve with a large enough effect in the repeat runs; inconclusive = weak or mixed curves; inactive = flat fitted curve, though single readings scatter.
observed-property: outcome

Prompt: Any idea what outcome was measured for CC(=O)CCc1ccc(O)cc1 ?
Response: inactive

Prompt: Now the compound CCCCOCC(C)OCC(C)O (configuration not stated)
Response: inactive

Prompt: Input O=C(O)c1ccc[n+]([O-])c1
Response: inactive

Prompt: Now this one: NC(N)=NS(=O)(=O)c1ccc(N)cc1
Response: inactive

Prompt: Repeat for the following compound: CC(C)c1ccc2oc3nc(N)c(C(=O)O)cc3c(=O)c2c1
Response: inactive

Prompt: Subsequent entry: CC(C)(C)CC(C)(C)N
Response: inactive

Next item in the queue.
Prompt: Given CCCCCCCCCCCCCCCCCC(=O)OCCCCCCCCCCCCCC(C)C , state its recorded outcome.
Response: inactive

* * *

assay: qHTS assay for identifying genotoxic compounds that show differential cytotoxicity against isogenic chicken DT40 cell lines with known DNA damage response pathways - wild type cell line (AID 743012); details: DT40 wild type chicken cells viability, CellTiter-Glo, 40 h; series mostly up to 68.4 µM; also: nearly all actives have a fitted effect of over 60% in size
Inconclusive results are not listed. The source made the active and inactive calls. The call rests on the fitted dose curve; in most records, active means well fitted cell-killing curve with a large enough effect in the repeat runs; inconclusive means weak or mixed curves, or effect the other way; inactive means no such curve, though single readings can be large or run the other way.
Log the outcome using a class from active, inactive

Prompt: Could you check what this test reported for COc1cc(C)cc(O)c1 ?
Response: inactive

Prompt: Please do the same for CCOC(=O)[C@H](CCc1ccccc1)N[C@@H](C)C(=O)N1CCC[C@H]1C(=O)O as well.
Response: inactive

Prompt: Same thing, different compound: NC(=O)CCCCC1CCSS1 (stereo not given)
Response: inactive

Prompt: What about this compound? CCCCCC[C@@H](CCC)C(=O)O
Response: inactive

Prompt: Please do the same for CCCOc1ccccc1-c1nc2n[nH]nc2c(=O)[nH]1 as well.
Response: inactive

---
Prompt: Given OCc1ccccn1 , state the outcome it received in this test.
Response: inactive

Prompt: Follow-up item: CSc1nc(NC2CC2)nc(NC(C)(C)C)n1
Response: active

Prompt: Same again, this time with CC(C)=CCC/C(C)=C/C(=O)O
Response: inactive

Prompt: What about CC(=O)O[C@H](CC(=O)[O-])C[N+](C)(C)C ?
Response: inactive

Prompt: // next record C=C(C)C1CC=C(C)C(O)C1 (stereo not given)
Response: inactive

Prompt: Same for Cc1ncc(CSSCc2cnc(C)c(O)c2CO)c(CO)c1O
Response: inactive

Prompt: Could you do the same for CC12CCC(CC1=O)C2(C)C (stereo not given) , please?
Response: inactive

Prompt: Do the same for CC(O)CN(CCCN(C)C)CCCN(C)C (stereo not given) please
Response: inactive

Prompt: Try CN(C)CCn1nnnc1SCC1=C(C(=O)O)N2C(=O)[C@@H](NC(=O)Cc3csc(N)n3)[C@H]2SC1 next.
Response: inactive

Prompt: What about this compound? Cc1ccc(Nc2ccc(O)c3c2C(=O)c2ccccc2C3=O)cc1
Response: inactive
